Source: patent US20230079819A1

Kindly supply the reported IC50 values for the records listed here.
# Assay System: BRM (Homo sapiens)
# Construct: made in house; host or cells: High Five insect cells
# Sequence (P51531 whole entry): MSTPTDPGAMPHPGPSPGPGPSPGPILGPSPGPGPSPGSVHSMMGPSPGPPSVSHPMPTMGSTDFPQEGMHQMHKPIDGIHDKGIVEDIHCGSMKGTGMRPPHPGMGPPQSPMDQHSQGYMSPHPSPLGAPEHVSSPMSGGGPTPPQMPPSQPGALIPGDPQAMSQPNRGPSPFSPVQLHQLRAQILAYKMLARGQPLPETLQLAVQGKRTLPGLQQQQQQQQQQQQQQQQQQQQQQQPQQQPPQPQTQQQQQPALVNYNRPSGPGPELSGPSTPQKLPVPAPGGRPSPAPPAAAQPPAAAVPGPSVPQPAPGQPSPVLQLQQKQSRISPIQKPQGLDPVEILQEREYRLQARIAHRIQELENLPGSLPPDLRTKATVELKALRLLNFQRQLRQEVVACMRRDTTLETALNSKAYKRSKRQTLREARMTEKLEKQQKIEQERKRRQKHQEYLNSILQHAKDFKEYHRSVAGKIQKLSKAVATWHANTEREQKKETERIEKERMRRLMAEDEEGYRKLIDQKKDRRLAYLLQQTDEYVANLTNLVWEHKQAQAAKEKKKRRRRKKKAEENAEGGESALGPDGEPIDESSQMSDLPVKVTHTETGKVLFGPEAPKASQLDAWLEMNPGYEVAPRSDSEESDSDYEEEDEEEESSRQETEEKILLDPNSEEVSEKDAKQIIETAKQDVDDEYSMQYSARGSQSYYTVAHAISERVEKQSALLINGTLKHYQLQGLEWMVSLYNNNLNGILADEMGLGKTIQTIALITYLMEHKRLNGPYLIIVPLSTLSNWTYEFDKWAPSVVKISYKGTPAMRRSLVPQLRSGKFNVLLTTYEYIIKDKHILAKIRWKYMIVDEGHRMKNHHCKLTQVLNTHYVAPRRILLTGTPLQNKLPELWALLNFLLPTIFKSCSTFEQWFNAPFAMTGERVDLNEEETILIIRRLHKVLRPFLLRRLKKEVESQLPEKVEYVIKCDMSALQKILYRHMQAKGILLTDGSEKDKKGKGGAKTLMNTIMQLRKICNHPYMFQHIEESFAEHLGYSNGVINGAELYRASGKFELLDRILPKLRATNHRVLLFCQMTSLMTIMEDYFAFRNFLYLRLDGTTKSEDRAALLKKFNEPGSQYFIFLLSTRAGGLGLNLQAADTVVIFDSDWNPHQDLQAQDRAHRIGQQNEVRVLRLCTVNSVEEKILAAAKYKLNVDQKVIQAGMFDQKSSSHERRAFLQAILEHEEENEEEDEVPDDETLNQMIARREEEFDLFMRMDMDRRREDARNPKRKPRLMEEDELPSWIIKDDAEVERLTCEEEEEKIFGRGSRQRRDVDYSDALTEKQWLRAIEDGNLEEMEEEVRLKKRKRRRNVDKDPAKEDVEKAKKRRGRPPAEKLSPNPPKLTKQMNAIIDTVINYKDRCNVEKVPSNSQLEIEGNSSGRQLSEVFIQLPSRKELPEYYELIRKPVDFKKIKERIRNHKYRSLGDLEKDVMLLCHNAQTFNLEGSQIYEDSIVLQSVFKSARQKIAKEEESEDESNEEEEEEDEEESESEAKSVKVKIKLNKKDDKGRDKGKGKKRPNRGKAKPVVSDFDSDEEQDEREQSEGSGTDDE
# Test Description: ATPase catalytic activity of BRM, ADP-Glo in vitro biochemical assay
# Condition Details: ATPase catalytic activity, 30 nM BRM, 400 μM ATP, read-out: BRM IP50 (μM)*

A selection of reference data follows.
{"Compound": "COC[C@H](NC(=O)c1ccn(S(C)(=O)=O)c1)C(=O)Nc1nc(-c2cccc(-c3ccnc(C)n3)c2)cs1 [Compound 357]", "IC50": "< 0.01 µM"}
{"Compound": "CN1CCOc2ccc(-c3csc(NC(=O)CNC(=O)c4ccn(S(C)(=O)=O)c4)n3)cc21 [Compound 282]", "IC50": "< 0.01 µM"}

Items follow; give IC50 for each.
1. CO[C@@H]1CCCN(c2cccc(-c3csc(NC(=O)CNC(=O)c4ccn(C(C)(C)C)c4)n3)c2)C1 [Compound 97]
2. CS(=O)(=O)n1ccc(C(=O)NCC(=O)Nc2nc(-c3cccc(N4CCCCC4)c3)cs2)c1 [Compound 242]
3. CC(=O)n1ccc(C(=O)NCC(=O)Nc2nc(-c3cccc(-c4ccncc4)c3)cs2)c1 [Compound 50]
4. C[C@H](NC(=O)c1ccn(S(C)(=O)=O)c1)C(=O)Nc1nc(-c2cccc(N3CCC3)c2)cs1 [Compound 364]
5. CO[C@H]1C[C@@H](Oc2cccc(-c3csc(NC(=O)CNC(=O)c4ccn(S(C)(=O)=O)c4)n3)c2)C1 [Compound 254]
6. CC(C)S(=O)(=O)n1ccc(C(=O)NCC(=O)Nc2nc(-c3cccc(-c4ccncc4)c3)cs2)c1 [Compound 43]

Response given:
1: > 0.1 µM; 2: > 0.01 µM; 3: > 0.1 µM; 4: > 0.01 µM; 5: > 0.01 µM; 6: > 0.01 µM

Items follow; give IC50 for each.
1. COC[C@H]1CCCN(c2cccc(-c3csc(NC(=O)CNC(=O)c4ccn(S(C)(=O)=O)c4)n3)c2)C1 [Compound 92]
2. COC[C@H](NC(=O)c1ccn(S(C)(=O)=O)c1)C(=O)Nc1nc(-c2cccc(N3CC(OC)C3)c2)cs1 [Compound 367]
3. COCCOC1CN(c2cccc(-c3csc(NC(=O)CNC(=O)c4ccn(S(C)(=O)=O)c4)n3)c2)C1 [Compound 184]
4. CO[C@@]1(C)CCCN(c2cccc(-c3csc(NC(=O)CNC(=O)c4ccn(S(C)(=O)=O)c4)n3)c2)C1 [Compound 258]

Response given:
1. > 0.01 µM
2. > 0.01 µM
3. > 0.01 µM
4. > 0.01 µM

Items follow; give IC50 for each.
1. CS(=O)(=O)n1ccc(C(=O)NCC(=O)Nc2nc(-c3cccc(OC4CC4)c3)cs2)c1 [Compound 265]
2. CS(=O)(=O)n1ccc(C(=O)NCC(=O)Nc2nc(-c3cccc(C4(F)CCC4)c3)cs2)c1 [Compound 256]
3. C[C@H](NC(=O)c1ccn(S(C)(=O)=O)c1)C(=O)Nc1nc(-c2cccc(N3CCC(O)CC3)c2)cs1 [Compound 370]

Response given:
1: > 0.01 µM; 2: > 0.01 µM; 3: > 0.01 µM

Items follow; give IC50 for each.
1. C[C@H]1CN(c2cccc(-c3csc(NC(=O)CNC(=O)c4ccn(S(C)(=O)=O)c4)n3)c2)CC[C@@H]1O [Compound 183]
2. CN(C(=O)c1cccc(-c2csc(NC(=O)CNC(=O)c3ccn(S(C)(=O)=O)c3)n2)c1)c1ccccc1 [Compound 116]
3. COC[C@@H]1CCCN(c2cccc(-c3csc(NC(=O)CNC(=O)c4ccn(S(C)(=O)=O)c4)n3)c2)C1 [Compound 244]
4. Cn1ncc(-c2cccc(-c3csc(NC(=O)CNC(=O)c4ccn(S(C)(=O)=O)c4)n3)c2)n1 [Compound 261]
5. CN(C)c1cccc(-c2csc(NC(=O)CNC(=O)c3ccn(S(C)(=O)=O)c3)n2)c1 [Compound 287]

Response given:
1: < 0.01 µM; 2: > 1 µM; 3: > 0.01 µM; 4: < 0.01 µM; 5: < 0.01 µM
